# reported Percent reduction in concentration, SULT1A1; entries follow
# measured_on: SULT1A1 from rat (Rattus norvegicus) (Rattus norvegicus)
# Construct: 1, 3, 4, 5, and 6 were cloned amplified from liver tissue cDNA; expressed in transfected cells
# assay_text: Percent reduction in concentration of phenolic compounds by E. coli expressing a sulfotransferase, compared to control strain
# Assay type: cell-based
# stated_conditions: E. coli BL21(DE3)pLysS expressing SULT1A1 rat, compared to the control strain; M9, 1 mM IPTG, single substrate at start concentration of Table 14; overnight 37° C.
Your answer should be a plain number; it is taken to be in %.

Example results:
Req: Please state recorded Percent reduction in concentration, SULT1A1 (tested on SULT1A1 from rat (Rattus norvegicus) (Rattus norvegicus)) of O=c1c(O)c(-c2ccc(O)c(O)c2)oc2cc(O)ccc12 [fisetin]
Resp: 98

Req: Please state recorded Percent reduction in concentration, SULT1A1 (tested on SULT1A1 from rat (Rattus norvegicus) (Rattus norvegicus)) of COc1cc(/C=C/C(=O)O)ccc1O [Ferulic acid, ferulic acid]
Resp: 72

Req: Please state recorded Percent reduction in concentration, SULT1A1 (tested on SULT1A1 from rat (Rattus norvegicus) (Rattus norvegicus)) of CC(=O)Nc1ccc(O)cc1 [4-acetamidophenol, reference compound]
Resp: 24

Req: Please state recorded Percent reduction in concentration, SULT1A1 (tested on SULT1A1 from rat (Rattus norvegicus) (Rattus norvegicus)) of O=c1c(O)c(-c2ccc(O)c(O)c2)oc2cc(O)cc(O)c12 [Quercetin]
Resp: 75

Turning to the following molecule.
Req: Please state recorded Percent reduction in concentration, SULT1A1 (tested on SULT1A1 from rat (Rattus norvegicus) (Rattus norvegicus)) of O=C(O)C(=O)Cc1ccc(O)cc1 [4-Hydroxyphenylpyruvic acid, 4-hydroxyphenylpyruvic acid]
Resp: 47

* * *

# measured_on: SULT1A1 from Rattus norvegicus (Rattus norvegicus, UniProt P17988)
# Construct: 1, 3, 4, 5, and 6 were cloned amplified from liver tissue cDNA; expressed in transfected cells
# assay_text: Percent reduction of phenolic compounds by E. coli KRX expressing a sulfotransferase
# Type: cell-based
# stated_conditions: M9, 0.1 mM IPTG, 0.1% rhamnose, compound 50 μM, overnight 37° C.
recorded_endpoint: Percent reduction, SULT1A1 (%)
Your answer should be a plain number; it is taken to be in %.

Req: So what does the record say about Percent reduction, SULT1A1 for O=[N+]([O-])c1ccc(O)cc1 [4-nitrophenol] ?
Resp: 30

Req: So what does the record say about Percent reduction, SULT1A1 for Cc1cc(=O)oc2cc(O)ccc12 [4-methylbelliferone] ?
Resp: 100

Req: So what does the record say about Percent reduction, SULT1A1 for COc1cc(/C=C/C(=O)O)cc(OC)c1O [Sinapic acid, sinapic acid] ?
Resp: 31

Next:
Req: So what does the record say about Percent reduction, SULT1A1 for O=C1C[C@@H](c2ccc(O)cc2)Oc2cc(O)cc(O)c21 [Naringenin] ?
Resp: 60

Req: So what does the record say about Percent reduction, SULT1A1 for CCc1ccc(O)cc1 [4-ethylphenol] ?
Resp: 100

Req: So what does the record say about Percent reduction, SULT1A1 for C=Cc1ccc(O)cc1 [4-vinylphenol] ?
Resp: 100

* * *

# measured_on: SULT1A1 from rat (Rattus norvegicus) (Rattus norvegicus, UniProt P17988)
# Construct: 1, 3, 4, 5, and 6 were cloned amplified from liver tissue cDNA; expressed in transfected cells
# Sequence (P17988 whole entry): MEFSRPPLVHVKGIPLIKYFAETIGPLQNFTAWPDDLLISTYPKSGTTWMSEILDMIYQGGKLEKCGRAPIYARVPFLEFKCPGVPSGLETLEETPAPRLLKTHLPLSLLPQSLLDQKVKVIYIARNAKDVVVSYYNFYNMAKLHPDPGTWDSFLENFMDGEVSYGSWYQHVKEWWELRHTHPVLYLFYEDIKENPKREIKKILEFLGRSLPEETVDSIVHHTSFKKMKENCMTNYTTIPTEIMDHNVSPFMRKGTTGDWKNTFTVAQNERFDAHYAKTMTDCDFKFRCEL
# assay_text: Percent reduction in concentration of phenolic compounds by E. coli expressing a sulfotransferase, compared to control strain
# Type: cell-based
# stated_conditions: E. coli BL21(DE3)pLysS expressing SULT1A1 rat + CysDNCQ, compared to the control strain; M9, 1 mM IPTG, single substrate at start concentration of Table 14; overnight 37° C.
# reported Percent reduction in concentration, SULT1A1 + CysDNCQ; entries follow
Your answer should be a plain number; it is taken to be in %.

Req: So what does the record say about Percent reduction in concentration, SULT1A1 + CysDNCQ for O=c1cc(-c2ccc(O)cc2)oc2cc(O)cc(O)c12 ?
Resp: 99

Req: So what does the record say about Percent reduction in concentration, SULT1A1 + CysDNCQ for O=c1cc(-c2ccc(O)c(O)c2)oc2cc(O)cc(O)c12 ?
Resp: 37

Req: So what does the record say about Percent reduction in concentration, SULT1A1 + CysDNCQ for O=C(O)CCc1ccc(O)cc1 [3-(4-Hydroxyphenyl)propionic acid] ?
Resp: 7

Req: So what does the record say about Percent reduction in concentration, SULT1A1 + CysDNCQ for COc1cc(/C=C/C(=O)O)ccc1O ?
Resp: 100

Req: So what does the record say about Percent reduction in concentration, SULT1A1 + CysDNCQ for COc1ccc(C=CC(=O)O)cc1O [3-Hydroxy-4-methoxycinnamic acid] ?
Resp: 62

Turning to the following molecule.
Req: So what does the record say about Percent reduction in concentration, SULT1A1 + CysDNCQ for CC(=O)Nc1ccc(O)cc1 [4-acetamidophenol, reference compound] ?
Resp: 30
